Measured TD50, listed per entry for reference.
- Tested on: rodent lifetime carcinogenesis bioassay, tumor incidence TD50
- METHOD SUMMARY: carcinogenic potency in animals, long-term in vivo studies, CPDB compilation (AID 1745844)
- TEST CONTEXT: mouse; strain B6C3F1; males; in feed; site: thyroid gland; lesion: follicular-cell adenoma; dosed 103 weeks; study length 104 weeks

# COMPOUND STRUCTURE STRING, TD50
data = [
    ("C=CCc1ccc(O)c(OC)c1", "8520 mg/kg/day"),
    ("CNc1ccc(N(CCO)CCO)cc1[N+](=O)[O-]", "2230 mg/kg/day"),
]

Attention now turns to another entry.
q: # get_value(readout='TD50', item= "Cc1ccc(N=Nc2c(O)ccc3ccccc23)c([N+](=O)[O-])c1" )
a: 38300 mg/kg/day

Cited source for all entries: PubChem BioAssay AID1745844
